Observation type: melting point

Completed entries (count: 3):
>>> value_measured("Cc1nn(C)c2nc(N(CC3CCC3)CC3CC3)c(CN(Cc3cc(C(F)(F)F)cc(C(F)(F)F)c3)c3nnn(C)n3)cc12")
"84 to 85 °C"
>>> value_measured("CCCSc1nc2c(C)cccc2cc1CN(Cc1cc(C(F)(F)F)cc(C(F)(F)F)c1)C(=O)OCC")
"42 °C"
>>> value_measured("CCN(CC1CCCC1)c1nc2ccccc2cc1CN(Cc1cc(C(F)(F)F)cc(C(F)(F)F)c1)C(N)=O")
"92 to 94 °C"

API: the following record is the query input.
Recorded melting point (compound CCN(CC1CCCC1)c1nc2ccccc2cc1CN(Cc1cc(C(F)(F)F)cc(C(F)(F)F)c1)c1nnc(C)o1 ): 126 to 127 °C
